# system-tested: dimethylarginine dimethylaminohydrolase (DDAH) (Rattus norvegicus, UniProt O08557)
# Construct: from tissue; host or cells: rat kidney homogenate supernatant
# Sequence (O08557 whole entry): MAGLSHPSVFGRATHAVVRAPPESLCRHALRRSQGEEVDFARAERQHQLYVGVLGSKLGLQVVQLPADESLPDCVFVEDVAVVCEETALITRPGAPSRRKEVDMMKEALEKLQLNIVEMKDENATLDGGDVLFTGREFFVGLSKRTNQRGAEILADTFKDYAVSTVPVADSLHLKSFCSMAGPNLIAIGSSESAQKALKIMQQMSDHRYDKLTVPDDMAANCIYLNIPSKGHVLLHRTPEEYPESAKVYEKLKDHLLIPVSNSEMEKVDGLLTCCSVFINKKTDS
# experiment-description: DDAH activity assay, conversion of L-[3H]-NMMA to L-[3H]-citrulline by rat kidney homogenate
# Type: biochemical
pIC50: −log10 of the molar value.
measured-metric: pIC50

{"molecule": "CC(NC(=N)NCCCC(N)C(=O)O)C(=O)O (stereo not drawn) [CEA, N^ω-carboxyethyl-arginine]", "pIC50": "< 2.30"}
{"molecule": "N=C(NO)NCC[C@H](N)C(=O)O [Nor-NOHA, N^G-hydroxy-nor-arginine, reference compound]", "pIC50": 2.75}

Next molecule, pIC50 to be filled in.
GET /value?item= N=C(NCCCC(N)C(=O)O)NCC(=O)O (stereo not drawn) [CMA, N^ω-Carboxymethyl-arginine] &field=pIC50 returns < 2.30

###

Reported IC50 values for the following compounds.
# system-tested: dimethylarginine dimethylaminohydrolase (DDAH) (Rattus norvegicus)
# Construct: from tissue; host or cells: rat kidney homogenate supernatant
# experiment-description: DDAH activity assay, conversion of L-[3H]-NMMA to L-[3H]-citrulline by rat kidney homogenate
# Assay type: biochemical
# test-conditions: rat kidney extracts, SPB pH 6.5, 1 h at 37°C; means ± SD (n = 4); read-out: IC50 DDAH

{"compound": "CC1NC(NCCCC(N)C(=O)O)=NC1=O (centres unmarked) [MG-H1]", "IC50": "> 5 mM"}

GET /value?item= NC(CCCCNCC(=O)O)C(=O)O (centres unmarked) [CML, carboxymethyl-lysine] &field=IC50 returns > 5 mM

###

# system-tested: recombinant nNOS (Rattus norvegicus, UniProt P29476)
# experiment-description: NOS activity assay, conversion of L-[14C(U)]-arginine to L-[14C(U)]-citrulline, nNOS
# test-conditions: 50 µM L-arginine, 30 min at 37°C, pH 7.4; means ± SD (n = 4)
# Text: L-Arginine, ADMA, N^G-hydroxy-L-arginine (NOHA), nicotinamide adenine dinucleotide phosphate reduced form (NADPH), flavin adenine dinucleotide (FAD), flavin mononucleotide (FMN), (6R)-5,6,7,8-tetrahydrobiopterin (BH4), recombinant eNOS (from bovine), iNOS (from mouse macrophage), Dowex® AG50W-X8 cation-exchange resin (mesh size, 100–200) were all purchased from Sigma Chemicals (St. Louis, MO). Ultima Gold XR scintillation liquid was from PerkinElmer (Shelton, CA). […]
measured-metric: pIC50
The read-out pIC50 is expressed as -log10 of concentration in moles per litre.

{"molecule": "CN(C)C(=N)NCCCC(N)C(=O)O [ADMA, asymmetric N^G,N^G-dimethyl-L-arginine, reference compound]", "system-tested": "recombinant nNOS (Rattus norvegicus, UniProt P29476)", "pIC50": 4.64}

GET /value?item= NC(CCCCNCC(=O)O)C(=O)O (centres unmarked) &field=pIC50 returns 2.71

GET /value?item= CC1NC(NCCCC(N)C(=O)O)=NC1=O (centres unmarked) &field=pIC50 returns 2.38
